# Test system: Ruminococcus gnavus DSM 108212
# assay_text: fold change of Tryptamine concentration vs plate DMSO controls (fold change (ratio)); higher = more amine produced, active = hit call of the paper (significant change in both replicates, either direction)
# condition_label: incubation time: 27 h, anaerobic, 37 °C
Where a name gives a salt, the structure may show the parent alone.
quantity: fold change of Tryptamine concentration
Numbers only.

Consider the reported fold change of Tryptamine concentration for these molecules:
molecule: O=C(O)c1cc(=O)[nH]c(=O)[nH]1 [Orotic acid] (20 µM)
tested_target: Ruminococcus gnavus DSM 108212
fold change of Tryptamine concentration: 0.967
//
molecule: CCCCCCCC/C=C\CCCCCCCC(N)=O [Oleamide] (20 µM)
tested_target: Ruminococcus gnavus DSM 108212
fold change of Tryptamine concentration: 0.895
//
molecule: CC1(C)O[C@@H]2C[C@H]3[C@@H]4C[C@H](F)C5=CC(=O)C=C[C@]5(C)[C@H]4[C@@H](O)C[C@]3(C)[C@]2(C(=O)CO)O1 [Flunisolide] (20 µM)
tested_target: Ruminococcus gnavus DSM 108212
fold change of Tryptamine concentration: 1.19
//
molecule: O=C(CCCN1CCC(O)(c2ccc(Br)cc2)CC1)c1ccc(F)cc1 [Bromperidol] (20 µM)
tested_target: Ruminococcus gnavus DSM 108212
fold change of Tryptamine concentration: 0.916
//
molecule: CO/N=C(\C(=O)N[C@@H]1C(=O)N2C(C(=O)O)=C(COC(N)=O)CS[C@H]12)c1ccco1 [Cefuroxime sodium salt] (20 µM)
tested_target: Ruminococcus gnavus DSM 108212
fold change of Tryptamine concentration: 0.0602

Give one value of fold change of Tryptamine concentration per listed molecule.
1. CC(C)c1nc(N(C)S(C)(=O)=O)nc(-c2ccc(F)cc2)c1/C=C/[C@@H](O)C[C@@H](O)CC(=O)O [Rosuvastatin] (20 µM)
2. CN1CCN(c2c(F)cc3c(=O)c(C(=O)O)cn4c3c2OCN4C)CC1 [Marbofloxacin] (20 µM)
3. O=C(NCCN1CCOCC1)c1ccc(Cl)cc1 [Moclobemide] (20 µM)
4. CCN(CC)C(=O)c1cccnc1 [Nikethamide] (20 µM)
5. CCC(=O)[C@@]1(C)[C@H](C)C[C@H]2[C@@H]3CCC4=CC(=O)C=C[C@]4(C)[C@H]3[C@@H](O)C[C@@]21C [Rimexolone] (20 µM)
6. CC(N)CCCC(C)(C)O (stereo not given) [Heptaminol hydrochloride] (20 µM)

[0.989, 0.992, 1.03, 1.05, 1.05, 1.01]

Give one value of fold change of Tryptamine concentration per listed molecule.
1. Cc1ccc(C)c(OCCCC(C)(C)C(=O)O)c1 [Gemfibrozil] (20 µM)
2. CN(C)CCC[C@@]1(c2ccc(F)cc2)OCc2cc(C#N)ccc21 [Escitalopram oxalate] (20 µM)
3. CCOCC(O)COc1ccc(NC(=O)CC[S+](C)C)cc1 (stereo not given) [Suplatast Tosylate] (20 µM)
4. CCN1CCN(C(=O)N[C@@H](C(=O)N[C@@H]2C(=O)N3C(C(=O)O)=C(CSc4nnnn4C)CS[C@H]23)c2ccc(O)cc2)C(=O)C1=O [Cefoperazone dihydrate] (20 µM)
5. CC(=O)OCC(=O)[C@@]1(O)CC[C@H]2[C@@H]3CCC4=CC(=O)C=C[C@]4(C)[C@@]3(F)[C@@H](O)C[C@@]21C [Isoflupredone acetate] (20 µM)
6. CO[C@H]1/C=C/O[C@@]2(C)Oc3c(C)c(O)c4c(O)c(c5c(nc6cc(C)ccn65)c4c3C2=O)NC(=O)/C(C)=C\C=C\[C@H](C)[C@H](O)[C@@H](C)[C@@H](O)[C@@H](C)[C@H](OC(C)=O)[C@@H]1C [Rifaximin] (20 µM)
7. CCc1ccc(CCOc2ccc(CC3SC(=O)NC3=O)cc2)nc1 (stereo not given) [Pioglitazone] (20 µM)

[1.05, 1.01, 0.978, 0.0363, 1.1, 0.144, 0.977]

Give one value of fold change of Tryptamine concentration per listed molecule.
1. CCCOc1ccc(C(=O)OCCN(CC)CC)cc1N [Proparacaine hydrochloride] (20 µM)
2. CCN(CC)CCOC(=O)C(c1ccccc1)c1ccccc1 [Adiphenine hydrochloride] (20 µM)
3. CNC[C@H](O)[C@@H](O)[C@H](O)[C@H](O)CO [Meglumine] (20 µM)

1.08
0.977
1.02

Every entry's value here was drawn from the supplement of paper PMC12494721.
